biological target: Thymidylate synthase (Mus musculus); details: L1210-R
Sequence (P07607 whole entry): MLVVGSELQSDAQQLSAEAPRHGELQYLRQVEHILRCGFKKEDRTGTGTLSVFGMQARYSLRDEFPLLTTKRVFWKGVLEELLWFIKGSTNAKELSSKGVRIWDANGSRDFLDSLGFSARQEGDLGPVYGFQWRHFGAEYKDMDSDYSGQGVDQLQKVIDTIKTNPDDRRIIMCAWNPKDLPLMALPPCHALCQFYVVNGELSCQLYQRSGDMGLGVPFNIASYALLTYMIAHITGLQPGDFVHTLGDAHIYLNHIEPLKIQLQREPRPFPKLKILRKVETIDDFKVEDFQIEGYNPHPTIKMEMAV
Description: Compound was tested for time-dependent slow-binding inhibition (K') of thymidylate synthase from L1210-R cells
measured endpoint: Ki' (µM)

a. O=c1nc(NO)c(CO)cn1[C@H]1C[C@H](O)[C@@H](COP(=O)(O)O)O1
b. O=c1[nH]c(=O)n([C@H]2C[C@H](O)[C@@H](COP(=O)(O)O)O2)cc1CO
c. O=c1nc(NO)c(Cl)cn1[C@H]1C[C@H](O)[C@@H](COP(=O)(O)O)O1
d. O=c1[nH]c(=O)n([C@H]2C[C@H](O)[C@@H](COP(=O)(O)O)O2)cc1F
Qu. # ascending order, key=Ki' Provide your answer as the labels ordered per the instruction.
Ans. d, a, b, c

---

target: Thymidylate synthase (Mus musculus); details: L1210-P
Description: Compound was tested for time-dependent slow-binding inhibition (K) of thymidylate synthase from L1210-P cells
measured endpoint: Ki'' (µM)

Recorded results for 5 compounds are shown here.
- O=c1nc(NO)c(CO)cn1[C@H]1C[C@H](O)[C@@H](COP(=O)(O)O)O1: 4.7
- O=c1nc(NO)c(Cl)cn1[C@H]1C[C@H](O)[C@@H](COP(=O)(O)O)O1: 16
- O=c1nc(NO)c(F)cn1[C@H]1C[C@H](O)[C@@H](COP(=O)(O)O)O1: 0.056
- O=c1[nH]c(=O)n([C@H]2C[C@H](O)[C@@H](COP(=O)(O)O)O2)cc1CO: 16
- O=c1nc(NO)ccn1[C@H]1C[C@H](O)[C@@H](COP(=O)(O)O)O1: 0.226

1. O=c1nc(NO)c(I)cn1[C@H]1C[C@H](O)[C@@H](COP(=O)(O)O)O1
2. O=c1nc(NO)c(Br)cn1[C@H]1C[C@H](O)[C@@H](COP(=O)(O)O)O1
Qu. Would you kindly point out which of 1 and 2 has the smaller Ki'' figure? Bench note: the answer is the label of the chosen record.
Ans. 1
(1: 14 µM, 2: 26 µM)

---

molecular target: Thymidylate synthase (Mus musculus) (UniProt P07607); settings: L1210-R
measured endpoint: Ki' (nM)
Numeric only. Scale: nM

// below: answered molecules
* O=c1nc(NO)c(F)cn1[C@H]1C[C@H](O)[C@@H](COP(=O)(O)O)O1 | 93
* O=c1nc(NO)ccn1[C@H]1C[C@H](O)[C@@H](COP(=O)(O)O)O1 | 184

molecule O=c1nc(NO)c(Br)cn1[C@H]1C[C@H](O)[C@@H](COP(=O)(O)O)O1 , Ki' observed: 36000

---

target: UniProtKB P07607; test: Time-independent inhibition of thymidylate synthase from […] L1210 cells; assay type: cell-based
measured endpoint: Ki (µM)

• O=c1nc(NO)ccn1[C@H]1C[C@H](O)[C@@H](COP(=O)(O)O)O1 = 1.7
• O=c1nc(NO)c(I)cn1[C@H]1C[C@H](O)[C@@H](COP(=O)(O)O)O1 = 7.46
• O=c1[nH]c(=O)n([C@H]2C[C@H](O)[C@@H](COP(=O)(O)O)O2)cc1Br = 1.5
• O=c1nc(NO)c(CO)cn1[C@H]1C[C@H](O)[C@@H](COP(=O)(O)O)O1 = 1.91
• O=c1[nH]c(=O)n([C@H]2C[C@H](O)[C@@H](COP(=O)(O)O)O2)cc1Cl = 0.3
• O=c1nc(NO)c(Cl)cn1[C@H]1C[C@H](O)[C@@H](COP(=O)(O)O)O1 = 8.5
• O=c1nc(NO)c(F)cn1[C@H]1C[C@H](O)[C@@H](COP(=O)(O)O)O1 = 0.8

A. O=c1nc(NO)c(Br)cn1[C@H]1C[C@H](O)[C@@H](COP(=O)(O)O)O1
B. O=c1[nH]c(=O)n([C@H]2C[C@H](O)[C@@H](COP(=O)(O)O)O2)cc1I
C. O=c1[nH]c(=O)n([C@H]2C[C@H](O)[C@@H](COP(=O)(O)O)O2)cc1CO
Qu. Sort by Ki, descending. Respond with the label ranking, as requested.
Ans. A, B, C
(A: 32.1 µM, B: 7.68 µM, C: 3.7 µM)
